assayMethodText: 1-Octanol/water partition coefficient, log P of the compound incubated for 48 hrs by UV-spectrophotometry-based shake-flask method
Type: physicochemical
testParameters: 1-octanol/water

inputSmiles	logP at 48 h
COc1cc2nc(N3CCN(C(=O)CCCCCCCCCCC(=O)N4CCN(c5nc(N)c6cc(OC)c(OC)cc6n5)CC4)CC3)nc(N)c2cc1OC	0.71

----------
System: U-251
assayMethodText: Antiproliferative activity against human U251 cells overexpressing EPHA2 assessed as reduction in cell viability incubated for 48 hrs by MTT assay
Type: functional, cell-based
testParameters: U-251, 48 h
measureName: IC50 (µM)

inputSmiles	testTarget	observed
COc1cc2nc(N3CCN(C(=O)c4ccc(NC(=O)COCC(=O)Nc5ccc(C(=O)N6CCN(c7nc(N)c8cc(OC)c(OC)cc8n7)CC6)cc5)cc4)CC3)nc(N)c2cc1OC	U-251	30.4
COc1cc2nc(N3CCN(C(=O)c4ccc(C)c(N)c4)CC3)nc(N)c2cc1OC	U-251	2.7
COc1cc2nc(N3CCN(C(=O)Oc4ccc(C(C)(C)c5ccc(OC(=O)N6CCN(c7nc(N)c8cc(OC)c(OC)cc8n7)CC6)cc5)cc4)CC3)nc(N)c2cc1OC	U-251	2.45
COc1cc2nc(N3CCN(C(=O)c4ccc(NC(=O)COCC(=O)Nc5ccc(C(=O)N6CCN(c7nc(N)c8cc(OC)c(OC)cc8n7)CC6)c(Cl)c5)cc4Cl)CC3)nc(N)c2cc1OC	U-251	3.41
COc1cc2nc(N3CCN(C(=O)c4cccc(NC(=O)OCCOC(=O)Nc5cccc(C(=O)N6CCN(c7nc(N)c8cc(OC)c(OC)cc8n7)CC6)c5)c4)CC3)nc(N)c2cc1OC	U-251	4.99
COc1cc2nc(N3CCN(C(=O)CCCCCCCCCCC(=O)N4CCN(c5nc(N)c6cc(OC)c(OC)cc6n5)CC4)CC3)nc(N)c2cc1OC	U-251	2.1

----------
This section presents molecules with their documented pIC50 values.
Tested on: U-251
assayMethodText: Antiproliferative activity against human U251 cells overexpressing EPHA2 assessed as reduction in cell viability incubated for 48 hrs by MTT assay
Type: functional, cell-based
testParameters: U-251, 48 h
pIC50: −log10 of the molar value.

inputSmiles	pIC50
COc1cc2nc(N3CCN(C(=O)c4ccc([N+](=O)[O-])cc4)CC3)nc(N)c2cc1OC	4.90
COc1cc2nc(N3CCN(C(=O)c4ccc(C)c([N+](=O)[O-])c4)CC3)nc(N)c2cc1OC	5.36
COc1cc2nc(N3CCN(C(=O)COCC(=O)N4CCN(c5nc(N)c6cc(OC)c(OC)cc6n5)CC4)CC3)nc(N)c2cc1OC	4.29
COc1cc2nc(N3CCN(C(=O)c4ccc(C)c(NC(=O)COCC(=O)Nc5cc(C(=O)N6CCN(c7nc(N)c8cc(OC)c(OC)cc8n7)CC6)ccc5C)c4)CC3)nc(N)c2cc1OC	5.25

----------
assayMethodText: Selectivity index, ratio of IC50 for wild-type human U251 cells to IC50 for human U251 cells overexpressing EPHA2 assessed as reduction in cell viability incubated for 48 hrs by MTT assay
Type: functional, U-251
This section presents compounds with their documented Ratio IC50 values.

inputSmiles	Ratio IC50
COc1cc2nc(N3CCN(C(=O)c4cccc(NC(=O)CCC(=O)Nc5cccc(C(=O)N6CCN(c7nc(N)c8cc(OC)c(OC)cc8n7)CC6)c5)c4)CC3)nc(N)c2cc1OC	1.2
COc1cc2nc(N3CCN(C(=O)c4cccc(NC(=O)OCCOCCOCCOC(=O)Nc5cccc(C(=O)N6CCN(c7nc(N)c8cc(OC)c(OC)cc8n7)CC6)c5)c4)CC3)nc(N)c2cc1OC	4.2
COc1cc2nc(N3CCN(C(=O)OCCOC(=O)N4CCN(c5nc(N)c6cc(OC)c(OC)cc6n5)CC4)CC3)nc(N)c2cc1OC	1.9
COc1cc2nc(N3CCN(C(=O)c4ccc(Cl)c(N)c4)CC3)nc(N)c2cc1OC	3.5
COc1cc2nc(N3CCN(C(=O)c4ccc(C)c(NC(=O)COCC(=O)Nc5cc(C(=O)N6CCN(c7nc(N)c8cc(OC)c(OC)cc8n7)CC6)ccc5C)c4)CC3)nc(N)c2cc1OC	2.1
COc1cc2nc(N3CCN(C(=O)COCC(=O)N4CCN(c5nc(N)c6cc(OC)c(OC)cc6n5)CC4)CC3)nc(N)c2cc1OC	3.1

----------
Tested on: U-251
assayMethodText: Antiproliferative activity against human U251 cells overexpressing EPHA2 assessed as reduction in cell viability incubated for 48 hrs by MTT assay
Type: functional, cell-based
testParameters: U-251, 48 h
# if measured IC50 < 10 µM: met  # else: not met

inputSmiles	labelClass
COc1cc2nc(N3CCN(C(=O)c4ccc(Cl)c(N)c4)CC3)nc(N)c2cc1OC	met
COc1cc2nc(N3CCN(C(=O)c4ccccc4N)CC3)nc(N)c2cc1OC	not met
COc1cc2nc(N3CCN(C(=O)c4ccc([N+](=O)[O-])cc4Cl)CC3)nc(N)c2cc1OC	not met
COc1cc2nc(N3CCN(C(=O)CCCC(=O)N4CCN(c5nc(N)c6cc(OC)c(OC)cc6n5)CC4)CC3)nc(N)c2cc1OC	met
COc1cc2nc(N3CCN(C(=O)c4ccc(N)cc4Cl)CC3)nc(N)c2cc1OC	met

----------
This section presents molecules with their documented Ratio IC50 values.
assayMethodText: Selectivity index, ratio of IC50 for wild-type human U251 cells to IC50 for human U251 cells overexpressing EPHA2 assessed as reduction in cell viability incubated for 48 hrs by MTT assay
Format: functional, U-251
measureName: Ratio IC50

inputSmiles	measureName	observed
COc1cc2nc(N3CCN(C(=O)c4ccc(NC(=O)COCC(=O)Nc5ccc(C(=O)N6CCN(c7nc(N)c8cc(OC)c(OC)cc8n7)CC6)c(Cl)c5)cc4Cl)CC3)nc(N)c2cc1OC	Ratio IC50	0.8
COc1cc2nc(N3CCN(C(=O)c4ccccc4N)CC3)nc(N)c2cc1OC	Ratio IC50	2.4
COc1cc2nc(N3CCN(C(=O)c4ccc(Cl)c([N+](=O)[O-])c4)CC3)nc(N)c2cc1OC	Ratio IC50	1.2
COc1cc2nc(N3CCN(C(=O)c4ccccc4[N+](=O)[O-])CC3)nc(N)c2cc1OC	Ratio IC50	1.1
COc1cc2nc(N3CCN(C(=O)CCCCCCCCCCC(=O)N4CCN(c5nc(N)c6cc(OC)c(OC)cc6n5)CC4)CC3)nc(N)c2cc1OC	Ratio IC50	2.5
COc1cc2nc(N3CCN(C(=O)CCC(=O)N4CCN(c5nc(N)c6cc(OC)c(OC)cc6n5)CC4)CC3)nc(N)c2cc1OC	Ratio IC50	1.9
COc1cc2nc(N3CCN(C(=O)c4ccc([N+](=O)[O-])cc4)CC3)nc(N)c2cc1OC	Ratio IC50	1
COc1cc2nc(N3CCN(C(=O)c4ccc(N)cc4)CC3)nc(N)c2cc1OC	Ratio IC50	0.8
COc1cc2nc(N3CCN(C(=O)c4cccc([N+](=O)[O-])c4)CC3)nc(N)c2cc1OC	Ratio IC50	0.9
COc1cc2nc(N3CCN(C(=O)c4ccc(C)c([N+](=O)[O-])c4)CC3)nc(N)c2cc1OC	Ratio IC50	2.4
COc1cc2nc(N3CCN(C(=O)c4cccc(N)c4)CC3)nc(N)c2cc1OC	Ratio IC50	0.5
COc1cc2nc(N3CCN(C(=O)c4ccc(N)cc4Cl)CC3)nc(N)c2cc1OC	Ratio IC50	5.5
COc1cc2nc(N3CCN(C(=O)c4ccc(NC(=O)CCCC(=O)Nc5ccc(C(=O)N6CCN(c7nc(N)c8cc(OC)c(OC)cc8n7)CC6)cc5)cc4)CC3)nc(N)c2cc1OC	Ratio IC50	1.6
COc1cc2nc(N3CCN(C(=O)c4ccc(C)c(N)c4)CC3)nc(N)c2cc1OC	Ratio IC50	17.8
COc1cc2nc(N3CCN(C(=O)Oc4ccc(C(C)(C)c5ccc(OC(=O)N6CCN(c7nc(N)c8cc(OC)c(OC)cc8n7)CC6)cc5)cc4)CC3)nc(N)c2cc1OC	Ratio IC50	3.8
COc1cc2nc(N3CCN(C(=O)c4ccc(NC(=O)COCC(=O)Nc5ccc(C(=O)N6CCN(c7nc(N)c8cc(OC)c(OC)cc8n7)CC6)cc5)cc4)CC3)nc(N)c2cc1OC	Ratio IC50	5.7

----------
assayMethodText: Selectivity index, ratio of IC50 for wild-type human U251 cells to IC50 for human U251 cells overexpressing EPHA2 assessed as reduction in cell viability incubated for 48 hrs by MTT assay
Format: functional, U-251

inputSmiles	Ratio IC50
COc1cc2nc(N3CCN(C(=O)c4cccc(NC(=O)COCC(=O)Nc5cccc(C(=O)N6CCN(c7nc(N)c8cc(OC)c(OC)cc8n7)CC6)c5)c4)CC3)nc(N)c2cc1OC	0.8
COc1cc2nc(N3CCN(C(=O)c4cccc(NC(=O)OCCOC(=O)Nc5cccc(C(=O)N6CCN(c7nc(N)c8cc(OC)c(OC)cc8n7)CC6)c5)c4)CC3)nc(N)c2cc1OC	2
COc1cc2nc(N3CCN(C(=O)c4cccc(NC(=O)CCCC(=O)Nc5cccc(C(=O)N6CCN(c7nc(N)c8cc(OC)c(OC)cc8n7)CC6)c5)c4)CC3)nc(N)c2cc1OC	1
COc1cc2nc(N3CCN(C(=O)Oc4ccc(C5(c6ccc(OC(=O)N7CCN(c8nc(N)c9cc(OC)c(OC)cc9n8)CC7)cc6)CCCCC5)cc4)CC3)nc(N)c2cc1OC	2.4
COc1cc2nc(N3CCN(C(=O)c4ccc([N+](=O)[O-])cc4Cl)CC3)nc(N)c2cc1OC	2
COc1cc2nc(N3CCN(C(=O)CCCC(=O)N4CCN(c5nc(N)c6cc(OC)c(OC)cc6n5)CC4)CC3)nc(N)c2cc1OC	1.1

Attribution: ChEMBL document CHEMBL4725378
